TEST SYSTEM: Adrenergic receptor alpha-1 (Rattus norvegicus, UniProt P15823+P23944+P43140)
Sequence (P15823 whole entry): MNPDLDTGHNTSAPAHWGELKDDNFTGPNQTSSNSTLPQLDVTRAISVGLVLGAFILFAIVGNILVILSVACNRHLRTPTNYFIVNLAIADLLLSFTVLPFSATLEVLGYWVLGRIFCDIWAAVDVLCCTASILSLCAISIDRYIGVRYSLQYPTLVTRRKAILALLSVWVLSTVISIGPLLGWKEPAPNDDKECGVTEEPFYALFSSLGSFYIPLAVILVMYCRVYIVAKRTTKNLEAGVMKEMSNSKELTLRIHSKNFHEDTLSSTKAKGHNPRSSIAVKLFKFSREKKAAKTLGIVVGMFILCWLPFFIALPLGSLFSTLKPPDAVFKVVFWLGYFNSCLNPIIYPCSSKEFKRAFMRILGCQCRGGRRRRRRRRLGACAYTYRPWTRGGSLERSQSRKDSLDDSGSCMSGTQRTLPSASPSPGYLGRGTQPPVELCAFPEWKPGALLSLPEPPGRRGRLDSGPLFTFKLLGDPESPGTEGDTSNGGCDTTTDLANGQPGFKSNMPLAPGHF
Sequence (P23944 whole entry): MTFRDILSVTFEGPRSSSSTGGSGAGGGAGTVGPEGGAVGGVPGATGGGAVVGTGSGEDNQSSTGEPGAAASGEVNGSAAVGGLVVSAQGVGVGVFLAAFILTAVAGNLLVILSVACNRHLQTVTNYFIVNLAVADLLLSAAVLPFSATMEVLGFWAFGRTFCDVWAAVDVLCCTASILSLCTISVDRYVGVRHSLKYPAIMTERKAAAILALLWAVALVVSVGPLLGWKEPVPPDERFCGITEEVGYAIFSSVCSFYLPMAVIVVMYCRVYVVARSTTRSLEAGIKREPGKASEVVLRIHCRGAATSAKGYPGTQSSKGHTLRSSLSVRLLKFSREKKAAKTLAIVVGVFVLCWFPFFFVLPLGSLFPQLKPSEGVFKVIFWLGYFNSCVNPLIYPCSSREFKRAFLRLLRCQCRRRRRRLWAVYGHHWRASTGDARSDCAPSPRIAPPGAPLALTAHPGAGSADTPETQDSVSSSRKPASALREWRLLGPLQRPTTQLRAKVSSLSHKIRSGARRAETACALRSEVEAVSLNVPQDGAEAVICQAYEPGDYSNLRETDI
Sequence (P43140 whole entry): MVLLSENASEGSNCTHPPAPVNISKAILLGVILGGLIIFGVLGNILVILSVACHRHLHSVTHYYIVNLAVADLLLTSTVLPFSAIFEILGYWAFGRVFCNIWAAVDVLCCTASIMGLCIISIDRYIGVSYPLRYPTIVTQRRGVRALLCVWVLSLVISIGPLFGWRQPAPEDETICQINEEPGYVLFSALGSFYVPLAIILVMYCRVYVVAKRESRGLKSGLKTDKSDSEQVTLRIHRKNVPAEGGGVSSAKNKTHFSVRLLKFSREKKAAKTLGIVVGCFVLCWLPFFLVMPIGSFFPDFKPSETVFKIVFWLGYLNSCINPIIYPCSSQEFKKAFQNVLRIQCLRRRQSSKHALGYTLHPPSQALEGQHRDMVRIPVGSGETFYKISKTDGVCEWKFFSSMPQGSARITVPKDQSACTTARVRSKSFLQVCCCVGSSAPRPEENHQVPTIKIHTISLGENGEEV
ASSAY NOTES: Displacement of [3H]prazosin binding to Alpha-1 adrenergic receptor sites on rat cerebral cortical membranes at 100 nM concentration
Format: cell membranes, Membrane
ASSAY ENDPOINT: -Log IC50

COc1cc2nc(N3CCN(C(=O)/C(F)=C/c4ccccc4)CC3)nc(N)c2cc1OC : 7.4
COc1cc2nc(N3CCN(C(=O)/C=C/c4ccc(F)cc4)CC3)nc(N)c2cc1OC : 7.64
COc1cc2nc(N3CCN(C(=O)/C=C/c4ccccc4)CC3)nc(N)c2cc1OC : 9.16
COC(=O)/C=C/C(=O)Nc1ccc(CCCCC(=O)N2CCN(c3nc(N)c4cc(OC)c(OC)cc4n3)CC2)cc1 : 8.35
C/C=C/C=C/C(=O)N1CCN(c2nc(N)c3cc(OC)c(OC)cc3n2)CC1 : 8.36
COc1cc2nc(N3CCN(C(=O)/C=C/c4ccc(NC(=O)CBr)cc4)CC3)nc(N)c2cc1OC : 7.17
COC(=O)/C=C/C(=O)Nc1ccc(/C=C/C(=O)N2CCN(c3nc(N)c4cc(OC)c(OC)cc4n3)CC2)cc1 : 7.53
COc1ccc(/C=C/C(=O)N2CCN(c3nc(N)c4cc(OC)c(OC)cc4n3)CC2)cc1 : 8.47
COc1cc2nc(N3CCN(C(=O)/C=C/c4ccc(N=C=S)cc4)CC3)nc(N)c2cc1OC : 6.99

----------
TEST SYSTEM: Adrenergic receptor alpha-1 (Rattus norvegicus, UniProt P15823+P23944+P43140)
ASSAY NOTES: Binding affinity at Alpha-1 adrenergic receptor sites on rat cerebral cortical membranes by [3H]prazosin displacement.
ASSAY ENDPOINT: -Log IC50

COc1cc2nc(N3CCN(C(=O)/C=C/c4ccc(Br)cc4)CC3)nc(N)c2cc1OC : 7.1
COc1cc2nc(N3CCN(C(=O)/C=C/c4ccc(Cl)cc4)CC3)nc(N)c2cc1OC : 7.9
COc1cc2nc(N3CCN(/C(S)=N/C4CCCCC4)CC3)nc(N)c2cc1OC : 8.27
COc1cc2nc(N3CCN(/C(S)=N/c4ccccc4)CC3)nc(N)c2cc1OC : 11.16
COc1cc2nc(N3CCN(C(=O)c4ccc(N=C=S)c(I)c4)CC3)nc(N)c2cc1OC : 7.29
COc1cc2nc(N3CCN(C(=O)/C=C/C(=O)c4ccccc4)CC3)nc(N)c2cc1OC : 7.06
COc1cc2nc(N3CCN(/C(S)=N/c4ccc(N=[N+]=[N-])cc4)CC3)nc(N)c2cc1OC : 7.7
COc1cc2nc(N3CCN(/C(S)=N/c4ccc(NC(=S)N5CC5)cc4)CC3)nc(N)c2cc1OC : 7.01
COc1cc2nc(N3CCN(S(=O)(=O)c4cccs4)CC3)nc(N)c2cc1OC : 7.47
COc1cc2nc(N3CCN(C(=O)/C=C/c4cccc(F)c4)CC3)nc(N)c2cc1OC : 7.68
COc1cc2nc(N3CCN(C(=O)Nc4ccccc4)CC3)nc(N)c2cc1OC : 7.56
COc1cc2nc(N3CCN(S(=O)(=O)c4ccc(C)cc4)CC3)nc(N)c2cc1OC : 7.94
COc1cc2nc(N3CCN(C(=O)c4cccc(CCl)c4)CC3)nc(N)c2cc1OC : 7.93
COc1cc2nc(N3CCN(C(=O)c4ccc5ccccc5c4)CC3)nc(N)c2cc1OC : 7.31
COc1cc2nc(N3CCN(C(=O)CCc4ccccc4)CC3)nc(N)c2cc1OC : 8.47
COc1cc2nc(N3CCN(C(=O)C4CC4c4ccccc4)CC3)nc(N)c2cc1OC (configuration not stated) : 9.29
COc1cc2nc(N3CCN(C(=O)COc4ccccc4)CC3)nc(N)c2cc1OC : 7.9
